system: 883617-216-R-J1-PDC tumor spheroids, viability; test: Anticancer human tumor 883617-216-R-J1-PDC patient-derived bladder carcinoma cell line growth inhibition [PI3K]; conditions: curve of first compound; second compound 0.00316 µM; spheroids with HUVEC and MSC
endpointName: IC50 (nM)

| molecule | targetOfAssay | IC50 [nM] |
| --- | --- | --- |
| CC(C)NCC(C(=O)N1CCN(c2ncnc3c2C(C)CC3O)CC1)c1ccc(Cl)cc1 (stereo unspecified) + CC(Nc1ccc2c(c1)OCCn1cc(N3C(=O)OCC3C(F)F)nc1-2)C(N)=O | 883617-216-R-J1-PDC tumor spheroids, viability | 453 |
| CCN1CCN(Cc2ccc(Nc3ncc(F)c(-c4cc(F)c5nc(C)n(C(C)C)c5c4)n3)nc2)CC1 + CC(Nc1ccc2c(c1)OCCn1cc(N3C(=O)OCC3C(F)F)nc1-2)C(N)=O | 883617-216-R-J1-PDC tumor spheroids, viability | 203 |
| CCCS(=O)(=O)Nc1ccc(F)c(C(=O)c2c[nH]c3ncc(-c4ccc(Cl)cc4)cc23)c1F + COc1c(OCCCN2CCOCC2)ccc2c3n(c(=NC(=O)c4cnc(N)nc4)nc12)CCN3 | 883617-216-R-J1-PDC tumor spheroids, viability | 4090 |
| CC(C)NCC(C(=O)N1CCN(c2ncnc3c2C(C)CC3O)CC1)c1ccc(Cl)cc1 (stereo unspecified) + COc1c(OCCCN2CCOCC2)ccc2c3n(c(=NC(=O)c4cnc(N)nc4)nc12)CCN3 | 883617-216-R-J1-PDC tumor spheroids, viability | 475 |
| CC(=O)c1c(C)c2cnc(Nc3ccc(N4CCNCC4)cn3)nc2n(C2CCCC2)c1=O + COc1c(OCCCN2CCOCC2)ccc2c3n(c(=NC(=O)c4cnc(N)nc4)nc12)CCN3 | 883617-216-R-J1-PDC tumor spheroids, viability | 41.2 |
| Cn1cnc2c(F)c(Nc3ccc(Br)cc3Cl)c(C(=O)NOCCO)cc21 + COc1c(OCCCN2CCOCC2)ccc2c3n(c(=NC(=O)c4cnc(N)nc4)nc12)CCN3 | 883617-216-R-J1-PDC tumor spheroids, viability | 23.6 |
| Cn1cnc2c(F)c(Nc3ccc(Br)cc3Cl)c(C(=O)NOCCO)cc21 + CC(Nc1ccc2c(c1)OCCn1cc(N3C(=O)OCC3C(F)F)nc1-2)C(N)=O | 883617-216-R-J1-PDC tumor spheroids, viability | 40.6 |

(I) Cn1ncc(Cl)c1-c1cc(C(=O)NC(CN)Cc2cccc(F)c2)sc1Cl (stereo unspecified) + CC(Nc1ccc2c(c1)OCCn1cc(N3C(=O)OCC3C(F)F)nc1-2)C(N)=O
(II) Cn1nccc1Nc1nccc(-c2ccn(C(CO)c3ccc(Cl)c(F)c3)c(=O)c2)n1 (stereo unspecified) + CC(Nc1ccc2c(c1)OCCn1cc(N3C(=O)OCC3C(F)F)nc1-2)C(N)=O
(III) CC(C)n1nc(-c2ccc3oc(N)nc3c2)c2c(N)ncnc21 + CC(Nc1ccc2c(c1)OCCn1cc(N3C(=O)OCC3C(F)F)nc1-2)C(N)=O
(IV) Cn1ncc(Cl)c1-c1cc(C(=O)NC(CN)Cc2cccc(F)c2)sc1Cl (stereo unspecified) + COc1c(OCCCN2CCOCC2)ccc2c3n(c(=NC(=O)c4cnc(N)nc4)nc12)CCN3
Q. Rank by IC50 (largest to smallest). // rank by listing labels in the order requested
A. II, IV, I, III
(II: 9310 nM, IV: 473 nM, I: 285 nM, III: 30 nM)

---

tested on: 883617-216-R-J1-PDC tumor spheroids, viability; experiment: Anticancer human tumor 883617-216-R-J1-PDC cell line growth inhibition [PI3K]; details: second compound 1 µM; first compound 0.0316 µM; stronger effect = lower value; spheroids with HUVEC and MSC;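 further: spheroids exposed to agents for 7 days before the viability read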
Measured viability, T/C accompanies every entry in the list below.
Field format: number, assumed %, no unit text.

Study these solved cases before continuing.
| molecule | targetOfAssay | endpointName | measuredNumber |
| --- | --- | --- | --- |
| CC(C)n1nc(-c2ccc3oc(N)nc3c2)c2c(N)ncnc21 + COc1c(OCCCN2CCOCC2)ccc2c3n(c(=NC(=O)c4cnc(N)nc4)nc12)CCN3 | 883617-216-R-J1-PDC tumor spheroids, viability | viability, T/C | 3.43 |
| C#Cc1c(F)ccc2cc(O)cc(-c3ncc4c(N5CC6CCC(C5)N6)nc(OCC56CCCN5CC(F)C6)nc4c3F)c12 (stereo unspecified) + COc1c(OCCCN2CCOCC2)ccc2c3n(c(=NC(=O)c4cnc(N)nc4)nc12)CCN3 | 883617-216-R-J1-PDC tumor spheroids, viability | viability, T/C | 3.49 |

Q. What measured viability, T/C goes with Cn1nccc1Nc1nccc(-c2ccn(C(CO)c3ccc(Cl)c(F)c3)c(=O)c2)n1 (stereo unspecified) + CC(Nc1ncnc2nc[nH]c12)c1cc2cccc(Cl)c2c(=O)n1-c1ccccc1 ?
A. 77.9

Q. Same again, this time with Cn1nccc1Nc1nccc(-c2ccn(C(CO)c3ccc(Cl)c(F)c3)c(=O)c2)n1 (stereo unspecified) + Cc1nc(NC(=O)N2CCCC2C(N)=O)sc1-c1ccnc(C(C)(C)C(F)(F)F)c1
A. 26.2

Q. Same again, this time with Cn1ncnc1[C@H]1c2n[nH]c(=O)c3cc(F)cc(c23)N[C@@H]1c1ccc(F)cc1 + COc1c(OCCCN2CCOCC2)ccc2c3n(c(=NC(=O)c4cnc(N)nc4)nc12)CCN3
A. 3.13

Q. Same again, this time with CC(Cn1ccc(-c2ccc(C#N)c(Cl)c2)n1)NC(=O)c1cc(C(C)O)[nH]n1 (stereo unspecified) + Cc1nc(NC(=O)N2CCCC2C(N)=O)sc1-c1ccnc(C(C)(C)C(F)(F)F)c1
A. 30.8

Q. Same again, this time with CC1(C)CCC(Nc2ncc(C(F)(F)F)c(-c3c[nH]c4c(P(C)(C)=O)c(C#N)ccc34)n2)CN1 (stereo unspecified) + CC(Nc1ccc2c(c1)OCCn1cc(N3C(=O)OCC3C(F)F)nc1-2)C(N)=O
A. 13.9

---

Measured viability, T/C accompanies every entry in the list below.
test system: 883617-216-R-J1-PDC tumor spheroids, viability; assay: Anticancer human tumor 883617-216-R-J1-PDC cell line growth inhibition [PI3K]; settings: second compound 0.00316 µM; first compound 3.16 µM; stronger effect = lower value; spheroids with HUVEC and MSC;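 further: spheroids exposed to agents for 7 days before the viability read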
Field format: number, assumed %, no unit text.

| compound | viability, T/C (%) |
| --- | --- |
| C=CC(=O)N1CCN(c2nc(=O)n(-c3c(C)ccnc3C(C)C)c3nc(-c4c(O)cccc4F)c(F)cc23)C(C)C1 (stereo not given) + COc1c(OCCCN2CCOCC2)ccc2c3n(c(=NC(=O)c4cnc(N)nc4)nc12)CCN3 | 52.3 |

Q. What measured viability, T/C goes with Cn1nccc1Nc1nccc(-c2ccn(C(CO)c3ccc(Cl)c(F)c3)c(=O)c2)n1 (stereo not given) + CC(Nc1ccc2c(c1)OCCn1cc(N3C(=O)OCC3C(F)F)nc1-2)C(N)=O ?
A. 80.1

Q. Same again, this time with C#Cc1c(F)ccc2cc(O)cc(-c3ncc4c(N5CC6CCC(C5)N6)nc(OCC56CCCN5CC(F)C6)nc4c3F)c12 (stereo not given) + CC(Nc1ccc2c(c1)OCCn1cc(N3C(=O)OCC3C(F)F)nc1-2)C(N)=O
A. 79.6

Q. Same again, this time with CCCS(=O)(=O)Nc1ccc(F)c(C(=O)c2c[nH]c3ncc(-c4ccc(Cl)cc4)cc23)c1F + CC(Nc1ccc2c(c1)OCCn1cc(N3C(=O)OCC3C(F)F)nc1-2)C(N)=O
A. 70.2

Q. Same again, this time with CNC(=O)c1ccc(N2C(=S)N(c3ccc(C#N)c(C(F)(F)F)c3)C(=O)C2(C)C)cc1F + COc1c(OCCCN2CCOCC2)ccc2c3n(c(=NC(=O)c4cnc(N)nc4)nc12)CCN3
A. 98.2

---

test system: 883617-216-R-J1-PDC tumor spheroids, viability; test: Anticancer human tumor 883617-216-R-J1-PDC cell line growth inhibition [PI3K]; conditions: second compound 0.0316 µM; first compound 0.316 µM; stronger effect = lower value; spheroids with HUVEC and MSC;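 further: spheroids exposed to agents for 7 days before the viability read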
endpointName: viability, T/C (%)
Field format: number, assumed %, no unit text.

Study these solved cases before continuing.
| molecule | unitsOfMeasure | viability, T/C |
| --- | --- | --- |
| CNC(=O)c1ccc(N2C(=S)N(c3ccc(C#N)c(C(F)(F)F)c3)C(=O)C2(C)C)cc1F + COc1c(OCCCN2CCOCC2)ccc2c3n(c(=NC(=O)c4cnc(N)nc4)nc12)CCN3 | % | 47.5 |
| CC1(C)CCC(Nc2ncc(C(F)(F)F)c(-c3c[nH]c4c(P(C)(C)=O)c(C#N)ccc34)n2)CN1 (stereo unspecified) + CC(Nc1ncnc2nc[nH]c12)c1cc2cccc(Cl)c2c(=O)n1-c1ccccc1 | % | 36.1 |
| Cn1ncc(Cl)c1-c1cc(C(=O)NC(CN)Cc2cccc(F)c2)sc1Cl (stereo unspecified) + COc1c(OCCCN2CCOCC2)ccc2c3n(c(=NC(=O)c4cnc(N)nc4)nc12)CCN3 | % | 33.2 |
| C[C@@H](NC(=O)c1ncnc(N)c1Cl)c1ncc(C(=O)Nc2cc(C(F)(F)F)c(Cl)cn2)s1 + CC(Nc1ncnc2nc[nH]c12)c1cc2cccc(Cl)c2c(=O)n1-c1ccccc1 | % | 81.4 |
| Cn1ncc(Cl)c1-c1cc(C(=O)NC(CN)Cc2cccc(F)c2)sc1Cl (stereo unspecified) + CC(Nc1ccc2c(c1)OCCn1cc(N3C(=O)OCC3C(F)F)nc1-2)C(N)=O | % | 43.2 |

Then there is this molecule:
Q. What measured viability, T/C goes with C#Cc1c(F)ccc2cc(O)cc(-c3ncc4c(N5CC6CCC(C5)N6)nc(OCC56CCCN5CC(F)C6)nc4c3F)c12 (stereo unspecified) + COc1c(OCCCN2CCOCC2)ccc2c3n(c(=NC(=O)c4cnc(N)nc4)nc12)CCN3 ?
A. 34.4
